Target: Phosphatidylinositol 4,5-bisphosphate 3-kinase catalytic subunit delta isoform (Homo sapiens)
Sequence (O00329 whole entry): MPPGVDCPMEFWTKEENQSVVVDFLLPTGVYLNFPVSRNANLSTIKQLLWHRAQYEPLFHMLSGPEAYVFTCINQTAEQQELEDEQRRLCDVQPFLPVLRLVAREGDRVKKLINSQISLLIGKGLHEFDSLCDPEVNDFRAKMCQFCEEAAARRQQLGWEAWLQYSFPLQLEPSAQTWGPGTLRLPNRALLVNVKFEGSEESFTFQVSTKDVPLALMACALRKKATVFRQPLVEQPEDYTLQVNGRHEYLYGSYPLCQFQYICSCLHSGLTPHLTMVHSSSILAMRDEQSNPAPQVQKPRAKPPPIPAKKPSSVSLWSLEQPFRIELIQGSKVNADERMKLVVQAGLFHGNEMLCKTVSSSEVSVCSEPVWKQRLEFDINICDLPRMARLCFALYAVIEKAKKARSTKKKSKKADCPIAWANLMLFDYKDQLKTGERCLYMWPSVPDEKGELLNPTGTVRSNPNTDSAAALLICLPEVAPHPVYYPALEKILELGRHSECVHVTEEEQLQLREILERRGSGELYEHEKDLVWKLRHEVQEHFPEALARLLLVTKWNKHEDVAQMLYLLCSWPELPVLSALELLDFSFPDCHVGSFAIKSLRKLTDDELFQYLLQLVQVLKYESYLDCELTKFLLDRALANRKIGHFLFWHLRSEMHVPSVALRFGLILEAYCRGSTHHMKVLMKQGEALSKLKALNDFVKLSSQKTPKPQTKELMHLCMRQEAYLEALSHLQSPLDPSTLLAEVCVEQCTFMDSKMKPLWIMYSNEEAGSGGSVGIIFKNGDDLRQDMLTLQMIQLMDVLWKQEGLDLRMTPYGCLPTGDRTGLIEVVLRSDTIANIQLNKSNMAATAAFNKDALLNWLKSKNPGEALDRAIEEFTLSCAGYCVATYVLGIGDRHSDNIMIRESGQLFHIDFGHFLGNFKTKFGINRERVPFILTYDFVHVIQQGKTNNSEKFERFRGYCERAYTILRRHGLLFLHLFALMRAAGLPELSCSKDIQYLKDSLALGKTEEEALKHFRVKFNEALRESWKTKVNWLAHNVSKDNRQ
Test: Inhibition of PI3Kdelta (unknown origin) using PIP2 as substrate after 2 hrs by ADP-Glo assay
Reported metric: IC50 (nM)

• O=c1c2c(F)cccc2nc([C@@H]2CCCN2c2nc(F)nc3[nH]cnc23)n1C1CCCC1 = 178
• CCCCn1c([C@@H]2CCCN2c2ncnc3[nH]cnc23)nc2cccc(F)c2c1=O = 42
• O=c1c2c(F)cccc2nc([C@@H]2CCCN2c2ncnc3[nH]cnc23)n1C1CCCC1 = 38
• O=c1c2ccccc2nc([C@@H]2CCCN2c2ncnc3[nH]cnc23)n1Cc1ccccc1 = 498
• N#Cc1c(N)ncnc1N1CCC[C@H]1c1nc2cccc(F)c2c(=O)n1C1CCCC1 = 6.3
• O=c1c2c(F)cccc2nc([C@@H]2CCCN2c2nc(F)nc3[nH]cnc23)n1Cc1ccccc1 = 91
• O=c1c2c(F)cccc2nc([C@@H]2CCCN2c2ncnc3[nH]cnc23)n1C1CCCCC1 = 33
• O=c1c2c(F)cccc2nc([C@@H]2CCCN2c2ncnc3[nH]cnc23)n1Cc1ccccc1 = 58
• N#Cc1c(N)ncnc1N1CCC[C@H]1c1nc2cccc(F)c2c(=O)n1Cc1ccccc1 = 22
• O=c1c2c(F)cccc2nc([C@@H]2CCCN2c2ncnc3[nH]cnc23)n1C1CCC1 = 635
